Property: κ (molar absorptivity); scope: individual molecules
assay: Molar absorptivity in CHCl3 (UV-Vis spectrophotometer); type: physicochemical; details: at λmax, CHCl3
State the answer as a number, implicitly in L/mol/cm.

Example molecules with recorded κ (molar absorptivity):
COc1ccc(C(=O)CC(=O)c2ccc(C(C)(C)C)cc2)cc1 [avobenzone, reference compound]    23870
CC(C)CCCC(C)C1CCC2C3CC=C4CC(OC(=O)c5ccc(N=Nc6ccc(OCCCC[n+]7ccc8ccccc8c7)cc6)cc5)CCC4(C)C3CCC12C.[Br-] (stereo not shown)    21176
CC(C)CCCC(C)C1CCC2C3CC=C4CC(OC(=O)c5ccc(N=Nc6ccc(OCCCC[n+]7ccccc7)cc6)cc5)CCC4(C)C3CCC12C.[Br-] (stereo not shown)    14464

Pending molecule:
Incoming: # query: κ (molar absorptivity) of entry CCN(CC)CCCCOc1ccc(N=Nc2ccc(C(=O)OC3CCC4(C)C(=CCC5C4CCC4(C)C(C(C)CCCC(C)C)CCC54)C3)cc2)cc1 (stereo not shown)
Outgoing: 24726

====

# λmax (λCHCl3) annotations
experiment: Molar absorptivity in CHCl3 (UV-Vis spectrophotometer); type: physicochemical; details: in CHCl3

For orientation, consider the following solved cases.
CC(C)CCCC(C)C1CCC2C3CC=C4CC(OC(=O)c5ccc(N=Nc6ccc(OCCCC[n+]7ccc8ccccc8c7)cc6)cc5)CCC4(C)C3CCC12C.[Br-] (stereo not shown) [iQB]    357 (λmax) nm
CC(C)CCCC(C)C1CCC2C3CC=C4CC(OC(=O)c5ccc(N=Nc6ccc(OCCCC[n+]7ccccc7)cc6)cc5)CCC4(C)C3CCC12C.[Br-] (stereo not shown) [PyB]    356 (λmax) nm
CCN(CC)CCCCOc1ccc(N=Nc2ccc(C(=O)OC3CCC4(C)C(=CCC5C4CCC4(C)C(C(C)CCCC(C)C)CCC54)C3)cc2)cc1 (stereo not shown) [CDBA]    357 (λmax) nm

As a next step, examine the compound that follows.
Incoming: Reported λmax (λCHCl3), compound COc1ccc(C(=O)CC(=O)c2ccc(C(C)(C)C)cc2)cc1 [avobenzone, reference compound] : ____
Outgoing: 358 (λmax) nm
